self-splicing fitness (ln) by entry:
assay: self-splicing fitness, log relative to wild type (ln ratio); higher = more splicing; Tetrahymena group I intron in knt gene, E. coli kanamycin selection, DiMSum; sequences stand for … in CUCUCU…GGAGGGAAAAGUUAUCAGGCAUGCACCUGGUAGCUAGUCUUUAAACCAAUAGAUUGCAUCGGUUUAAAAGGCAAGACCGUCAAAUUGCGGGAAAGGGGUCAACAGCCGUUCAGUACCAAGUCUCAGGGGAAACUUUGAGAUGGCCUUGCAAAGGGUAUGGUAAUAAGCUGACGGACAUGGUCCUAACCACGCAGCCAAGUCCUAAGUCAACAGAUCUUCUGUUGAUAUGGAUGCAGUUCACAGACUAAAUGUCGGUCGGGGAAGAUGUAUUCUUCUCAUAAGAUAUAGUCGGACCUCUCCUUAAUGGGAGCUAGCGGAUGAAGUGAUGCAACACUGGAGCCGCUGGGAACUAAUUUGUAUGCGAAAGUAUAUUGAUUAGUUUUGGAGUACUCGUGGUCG; details: 30 °C;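 note: selection with 25 µg/mL kanamycin versus none on LB agar overnight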
READOUT_LABEL: self-splicing fitness (ln)

| SEQ_TEXT | READOUT_LABEL | RESULT |
| --- | --- | --- |
| CCUAAGCAAUAUUACGAAUC | self-splicing fitness (ln) | -0.765 |
| UGCAAGCAAUAUUACGCAGU | self-splicing fitness (ln) | -3.63 |
| UAGGAGCAAUAUUACGUUGU | self-splicing fitness (ln) | -3.31 |
| ACCCAGCAAUAUUACGGGUC | self-splicing fitness (ln) | -1.89 |
